- Target Desc: Suppressor of tumorigenicity 14 protein (Homo sapiens)
- Sequence (Q9Y5Y6 whole entry): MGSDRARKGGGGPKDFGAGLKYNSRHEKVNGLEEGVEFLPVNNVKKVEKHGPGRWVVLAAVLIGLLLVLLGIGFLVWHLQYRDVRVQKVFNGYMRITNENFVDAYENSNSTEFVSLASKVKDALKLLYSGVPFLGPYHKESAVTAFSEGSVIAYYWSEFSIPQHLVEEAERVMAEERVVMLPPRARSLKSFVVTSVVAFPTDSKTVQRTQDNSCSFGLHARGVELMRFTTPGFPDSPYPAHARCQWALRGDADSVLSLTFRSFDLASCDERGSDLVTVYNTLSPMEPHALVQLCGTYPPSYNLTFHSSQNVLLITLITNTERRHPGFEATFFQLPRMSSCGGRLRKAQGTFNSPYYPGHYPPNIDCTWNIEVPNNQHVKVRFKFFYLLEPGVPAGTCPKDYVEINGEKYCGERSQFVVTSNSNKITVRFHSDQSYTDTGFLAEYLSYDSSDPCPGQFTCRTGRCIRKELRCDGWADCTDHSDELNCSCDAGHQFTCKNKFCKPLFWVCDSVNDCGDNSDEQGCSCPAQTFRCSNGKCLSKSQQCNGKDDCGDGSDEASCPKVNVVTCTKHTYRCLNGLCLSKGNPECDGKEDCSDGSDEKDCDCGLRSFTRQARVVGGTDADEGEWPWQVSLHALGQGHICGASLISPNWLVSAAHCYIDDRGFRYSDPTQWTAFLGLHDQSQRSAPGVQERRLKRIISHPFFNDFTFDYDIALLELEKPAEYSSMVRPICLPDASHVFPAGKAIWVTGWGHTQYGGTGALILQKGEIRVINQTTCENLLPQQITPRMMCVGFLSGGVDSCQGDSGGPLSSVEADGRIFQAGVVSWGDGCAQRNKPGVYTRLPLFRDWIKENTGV
- Assay Details: Inhibition Assay: Inhibition assay using matriptase enzyme
Measured Endpoint: pKi
pKi here: minus log base 10 of the concentration, concentration in moles per litre.

Prompt: What does the data say about its pKi? Entry: `CNC(=O)CCCC1CCN(C(=O)[C@H](Cc2cccc(C(=N)N)c2)NS(=O)(=O)c2cccc(N3CCNCC3=O)c2)CC1`
Completion: 7.62
